target: Toxin B (Clostridioides difficile); assay: TcdB glycohydrolase inhibitors, primary screen, biochemical, single point, plate reader (AID 652162); conditions: TcdB glycohydrolase enzymatic assay, at 9.99 µM, hits give high values
About 840 (0.24%) of roughly 350,000 compounds were called active. The full list was thinned out, with actives kept by preference.
recordedEndpoint: inhibition (%)
// units = %; emit number, no label

Enquiry: Write down the reported inhibition of O=C(c1cccc(F)c1)N1CC[C@@H]2[C@H](CO)Nc3ccc(-c4ccccc4)cc3[C@@H]21 , test system: Toxin B (Clostridioides difficile).
Return: -1.25

Enquiry: Lookup: inhibition / Toxin B (Clostridioides difficile) / O=C(C[C@@H]1C[C@@H]2c3cc(NC(=O)c4ccc5c(c4)OCO5)ccc3O[C@@H]2[C@@H](CO)O1)NCc1ccc(Cl)cc1
Return: 1.53

Enquiry: Could you share what inhibition was measured for CO[C@@H]1CC[C@H]2CCN(C)C(=O)[C@@H](C)CN(C)C(=O)c3cccc(C#N)c3OC[C@@H]1O2 , tested on Toxin B (Clostridioides difficile)?
Return: 0.637

Enquiry: For Toxin B (Clostridioides difficile), provide inhibition of CN(C)c1ccc(C(=S)N2CCN(C(=S)Nc3ccc(Cl)cc3)CC2)cc1 please.
Return: 17.4

Enquiry: Give inhibition (Toxin B (Clostridioides difficile)) of the following compound: O=C(C[C@H]1C[C@@H]2c3cc(NC(=O)c4ccc5c(c4)OCO5)ccc3O[C@@H]2[C@@H](CO)O1)NCc1cccnc1
Return: -0.896

Enquiry: Reported inhibition for Toxin B (Clostridioides difficile), given CO[C@H]1O[C@H](CO)[C@@H](OC(=O)Nc2ccc(C(F)(F)F)cc2)[C@H](OC(=O)Nc2ccc3c(c2)OCO3)[C@H]1OC(=O)Nc1ccc2c(c1)OCO2 ?
Return: 0.426

Enquiry: Tell me reported inhibition for CCCC(=O)N1CC2(CCN(C(=O)C3CC3)CC2)c2c(n(C)c3cc(OC)ccc23)[C@H]1CO , tested with Toxin B (Clostridioides difficile).
Return: -0.231

Enquiry: Form field: inhibition recorded for CC(C)CC#Cc1cnc2c(c1)C(=O)N([C@@H](C)CO)C[C@@H](C)[C@@H](CN(C)C(=O)c1cccnc1)O2 with Toxin B (Clostridioides difficile) (enter value)
Return: -0.559

Enquiry: Hi! What's the reported inhibition for CN1CCN(/N=C/c2c[nH]c3ccccc23)CC1 on Toxin B (Clostridioides difficile)?
Return: 12.7

Enquiry: Please tell me: inhibition of Cc1nonc1C(=O)N/N=C/c1ccc(O)cc1 , system Toxin B (Clostridioides difficile)?
Return: 5.9

Enquiry: Test system Toxin B (Clostridioides difficile); read-out inhibition; what value for C[C@@H]1CN([C@@H](C)CO)C(=O)c2cc(C#CCN(C)C)cnc2O[C@H]1CN(C)S(=O)(=O)c1cn(C)cn1 ?
Return: 1.29

Enquiry: Notebook entry, Toxin B (Clostridioides difficile) assay: inhibition of COc1ccc(S(=O)(=O)N(C)C[C@@H]2Oc3ccc(NC(=O)C4CC4)cc3CC(=O)N([C@@H](C)CO)C[C@@H]2C)cc1 = ?
Return: 0.342

Enquiry: Which inhibition is reported with Toxin B (Clostridioides difficile) for this entry: CN(c1ccc(O)cc1)c1nc(-c2cccnc2)cs1 ?
Return: 14.9

Enquiry: Return inhibition measured with Toxin B (Clostridioides difficile) given this compound: COC(=O)C1=C[C@@H](C(=O)OC)[C@@H]2C3=C(C(=O)[C@]2(C)NC(=O)c2ccccc2)[C@H](C)n2c(=O)n(C)c(=O)n2[C@@H]3C1
Return: 11.2

Enquiry: // map COc1ccc(-c2ccc(OC(=O)NC3CCS(=O)(=O)C3)cc2)cc1 (stereo unspecified) to recorded inhibition (system: Toxin B (Clostridioides difficile))
Return: 10.6

Enquiry: API: value(readout= inhibition, system= Toxin B (Clostridioides difficile), query= O=C(NC1CCN(C(=S)Nc2ccc(Cl)cc2)CC1)C1CCCCC1 )
Return: -0.645

Enquiry: Could you share what inhibition was measured for C[n+]1ccc(/C=C/c2c[nH]c3ccccc23)cc1 , tested on Toxin B (Clostridioides difficile)?
Return: 1.44

Enquiry: Please tell me: inhibition of COc1ccc(NC(=O)N(C)C[C@H]2Oc3cc(-c4ccncc4)ccc3S(=O)(=O)N([C@@H](C)CO)C[C@H]2C)cc1 , system Toxin B (Clostridioides difficile)?
Return: 0.138

Enquiry: State its inhibition on Toxin B (Clostridioides difficile): O=C(C[C@H]1CC[C@@H]2[C@H](COC[C@@H](O)CN2CC2CC2)O1)NCC1CC1
Return: -1.35

Enquiry: For the record CCOC(=O)c1ccc(NC(=S)N2CCCC2)cc1 , what value of inhibition is listed for Toxin B (Clostridioides difficile)?
Return: 1.01

Enquiry: What measured inhibition is associated with O=C(NNC(=O)c1csc(-c2cccnc2)n1)Nc1ccc(Cl)cc1 on Toxin B (Clostridioides difficile)?
Return: 0.087

Enquiry: Under Toxin B (Clostridioides difficile): inhibition value of CC(Oc1ccc(Br)cc1)C(=O)NC1CCCCCC1 (stereo unspecified) ?
Return: 2.69

Enquiry: Give Toxin B (Clostridioides difficile) inhibition for Cc1ccccc1-n1c(SCC(=O)Nc2cccc3ccccc23)nc(O)cc1=O
Return: 1.39

Enquiry: Form entry - test system: Toxin B (Clostridioides difficile); read-out: inhibition; compound: CNC[C@H]1Oc2cc(-c3ccc(C(=O)N(C)C)cc3)ccc2S(=O)(=O)N([C@@H](C)CO)C[C@@H]1C
Return: -0.097

Enquiry: What is its inhibition for Toxin B (Clostridioides difficile)? Entry: O=C(CN1CCSCC1)N/N=C/c1ccc(Cl)cc1
Return: 1.98

Enquiry: Which measured inhibition belongs to O=C(C[C@H]1C[C@H]2c3cc(NC(=O)c4ccc5c(c4)OCO5)ccc3O[C@H]2[C@@H](CO)O1)NCc1cccc(F)c1 , tested on Toxin B (Clostridioides difficile)?
Return: 15.2

Enquiry: Please tell me: inhibition of CCC(=O)N(C)C[C@H]1Oc2cc(/C=C/c3ccccc3)ccc2S(=O)(=O)N([C@H](C)CO)C[C@H]1C , system Toxin B (Clostridioides difficile)?
Return: 0.008

Enquiry: Query for Toxin B (Clostridioides difficile): what inhibition does the record show for O=C(C[C@@H]1C[C@@H]2c3cc(NC(=O)Nc4ccc(F)cc4)ccc3O[C@@H]2[C@H](CO)O1)NCC(F)(F)F ?
Return: 0.33

Enquiry: Report inhibition for CN(C)c1ccc(-c2nnc(-c3cccnc3)o2)cc1 tested on Toxin B (Clostridioides difficile).
Return: 0.383

Enquiry: Request - read-out inhibition | tested on Toxin B (Clostridioides difficile) | compound COc1ccc(NC(=O)N(C)C[C@H]2Oc3c(NC(=O)C4CC4)cccc3C(=O)N([C@@H](C)CO)C[C@@H]2C)cc1
Return: -0.546

Enquiry: Query inhibition on Toxin B (Clostridioides difficile) for C[C@H](CO)N1C[C@H](C)[C@H](CN(C)S(=O)(=O)c2ccccc2C#N)OCc2cn(nn2)CCCC1=O
Return: -0.086

Enquiry: API: value(readout=inhibition, system=Toxin B (Clostridioides difficile)) for record COc1ccc(S(=O)(=O)N2CCCCC2)cc1C(=O)NC1CCS(=O)(=O)C1 (stereo unspecified)
Return: 0.566

Enquiry: # value lookup — system Toxin B (Clostridioides difficile), readout inhibition, item O=C(COC(=O)c1cccnc1Cl)NC(=O)NC1CCCCC1
Return: 1.25

Enquiry: Query inhibition on Toxin B (Clostridioides difficile) for COCc1cn(CC[C@H]2CC[C@H](NC(=O)Nc3ccc4c(c3)OCO4)[C@@H](CO)O2)nn1
Return: 0.036

Enquiry: Recall the recorded inhibition for C[C@H](CO)N1C[C@H](C)[C@@H](CN(C)C(=O)Nc2cccc3ccccc23)Oc2c(NS(=O)(=O)c3ccccc3)cccc2C1=O with Toxin B (Clostridioides difficile) and state it.
Return: -1.06

Enquiry: Request - read-out inhibition | tested on Toxin B (Clostridioides difficile) | compound C/C(=N\NC(=O)COc1c(C)cccc1C)c1cccs1
Return: 0.614
